# ASSAY COMMENT: Solubility testing (dissolution time) of purified 4-hydroxyacetophenone (0.5 wt.-%) in cold water
# Assay type: physicochemical
# CONDITION CONTEXT: 0.5 wt.-% 4-HAP, 99.50 wt.-% water; solvent at 17.5-18.5° C., stirred at 500 rpm at 20-21° C.
Answer each item with its documented Time needed until purified 4-HAP is fully dissolved.
Numbers only, in min.

Look over these answered cases.
> print(dat)
                                   compound  output.unit  recorded.number
1  CC(=O)c1ccc(O)cc1 [Example 9, 4-hydroxyacetophenone]          min               29
2  CC(=O)c1ccc(O)cc1 [Example 3, 4-hydroxyacetophenone]          min               35
3  CC(=O)c1ccc(O)cc1 [Example 7, 4-hydroxyacetophenone]          min               51
4  CC(=O)c1ccc(O)cc1 [Example 1a, 4-hydroxyacetophenone]          min               24

Suppose we examine the compound CC(=O)c1ccc(O)cc1 [Example 5, 4-hydroxyacetophenone] ; what Time needed until purified 4-HAP is fully dissolved value has been reported?
35

* * *

Give Time needed until purified 4-HAP is fully dissolved for every item shown.
# ASSAY COMMENT: Solubility testing (dissolution time) of purified 4-hydroxyacetophenone (0.5 wt.-%) in cold water
# Assay type: physicochemical
# CONDITION CONTEXT: 0.5 wt.-% 4-HAP, 99.50 wt.-% water; solvent at 17.5-18.5° C., stirred at 500 rpm at 20-21° C.
Give bare numbers, in min.

> print(dat)
                                   compound  recorded.number
1  CC(=O)c1ccc(O)cc1 [Example 10, 4-hydroxyacetophenone]               67

Lab note: each compound below needs its Time needed until purified 4-HAP is fully dissolved filled in.
1. CC(=O)c1ccc(O)cc1 [Example 1b, 4-hydroxyacetophenone]
2. CC(=O)c1ccc(O)cc1 [Example 4, 4-hydroxyacetophenone]
3. CC(=O)c1ccc(O)cc1 [Example 2, 4-hydroxyacetophenone]
4. CC(=O)c1ccc(O)cc1 [Example 8, 4-hydroxyacetophenone]

1: 22; 2: 41; 3: 115; 4: 44

* * *

# ASSAY COMMENT: Solubility testing (dissolution time) of purified 4-hydroxyacetophenone (0.5 wt.-%) in cold 1,2-pentanediol (5 wt.-%) in water
# Format: physicochemical
# CONDITION CONTEXT: 0.5 wt.-% 4-HAP, 5 wt.-% 1,2-pentanediol, 94.50 wt.-% water; solvent at 17.5-18.5° C., stirred at 500 rpm at 20-21° C.
// assign criterion met if Time needed until purified 4-HAP is fully dissolved falls strictly below 30 min, else criterion not met (ties count as criterion not met)

// below: answered compounds
> print(dat)
                                   compound           category
1  CC(=O)c1ccc(O)cc1 [Example 3, 4-hydroxyacetophenone]      criterion met
2  CC(=O)c1ccc(O)cc1 [Example 5, 4-hydroxyacetophenone]      criterion met
3  CC(=O)c1ccc(O)cc1 [Example 6, 4-hydroxyacetophenone]  criterion not met
4  CC(=O)c1ccc(O)cc1 [Example 4, 4-hydroxyacetophenone]  criterion not met
5  CC(=O)c1ccc(O)cc1 [Example 1a, 4-hydroxyacetophenone]      criterion met

Given the entry CC(=O)c1ccc(O)cc1 [Example 2, 4-hydroxyacetophenone] , would its reported Time needed until purified 4-HAP is fully dissolved be below 30 min?
criterion not met

Same read-out for CC(=O)c1ccc(O)cc1 [Example 8, 4-hydroxyacetophenone] ?
criterion met

Input CC(=O)c1ccc(O)cc1 [Example 9, 4-hydroxyacetophenone]
criterion met

Same question, CC(=O)c1ccc(O)cc1 [Example 7, 4-hydroxyacetophenone] this time
criterion not met

* * *

# ASSAY COMMENT: Solubility testing (dissolution time) of purified 4-hydroxyacetophenone (0.5 wt.-%) in cold 1,2-pentanediol (3 wt.-%) and glycerin (5 wt.-%) in water
# Type: physicochemical
# CONDITION CONTEXT: 0.5 wt.-% 4-HAP, 3 wt.-% 1,2-pentanediol, 5 wt.-% glycerin (99.5%), 91.50 wt.-% water; solvent at 17.5-18.5° C., stirred at 500 rpm at 20-21° C.
So I've got a bunch of compounds here, and I need their Time needed until purified 4-HAP is fully dissolved values.
Numbers only, in min.

Guide cases for Time needed until purified 4-HAP is fully dissolved, answers given:
> print(dat)
                                   compound  output.unit  recorded.number
1  CC(=O)c1ccc(O)cc1 [Example 6, 4-hydroxyacetophenone]          min               28
2  CC(=O)c1ccc(O)cc1 [Example 7, 4-hydroxyacetophenone]          min               33
3  CC(=O)c1ccc(O)cc1 [Example 8, 4-hydroxyacetophenone]          min               27

Provide Time needed until purified 4-HAP is fully dissolved values for the following items, in order.
1. CC(=O)c1ccc(O)cc1 [Example 1a, 4-hydroxyacetophenone]
2. CC(=O)c1ccc(O)cc1 [Example 10, 4-hydroxyacetophenone]
3. CC(=O)c1ccc(O)cc1 [Example 1b, 4-hydroxyacetophenone]

15
42
19

Parameters: items (list). Returns: Time needed until purified 4-HAP is fully dissolved for each item.
1. CC(=O)c1ccc(O)cc1 [Example 4, 4-hydroxyacetophenone]
2. CC(=O)c1ccc(O)cc1 [Example 3, 4-hydroxyacetophenone]

[24, 30]

Record Time needed until purified 4-HAP is fully dissolved for all entries; do not skip any.
1. CC(=O)c1ccc(O)cc1 [Example 5, 4-hydroxyacetophenone]
2. CC(=O)c1ccc(O)cc1 [Example 2, 4-hydroxyacetophenone]

1: 22; 2: 53

Bench note: what Time needed until purified 4-HAP is fully dissolved did CC(=O)c1ccc(O)cc1 [Example 9, 4-hydroxyacetophenone] show?
21
